Provide the reported ED20 of each item.
Experiment: Hypotensive activity in anesthetized rats (mean arterious pressure, i.v. bolus)
Type: in vivo, male albino rats (D strain, Charles River)
Details: Rattus norvegicus, iv, read-out: ED20, dose reducing by 20% the mean arterious pressure (graphically calculated)
Answers are plain numbers, in µmol/kg.

Would you please look over these solved cases?
O=[N+]([O-])O[C@H]1CO[C@H]2[C@@H]1OC[C@H]2O [IS-2-N, 1,4:3,6-dianhydrosorbitol 2-nitrate, reference compound]: 12
O=C(CCC(=O)O[C@H]1CO[C@H]2[C@@H]1OC[C@H]2O[N+](=O)[O-])O[C@H]1CO[C@H]2[C@@H]1OC[C@H]2O[N+](=O)[O-]: 7
O=[N+]([O-])O[C@@H]1CO[C@H]2[C@@H]1OC[C@@H]2O [IS-5-N, 1,4:3,6-dianhydrosorbitol 5-nitrate, reference compound]: 150

q: State the recorded ED20 for this entry: `O=C(O)CCC(=O)O[C@H]1CO[C@H]2[C@@H]1OC[C@H]2O[N+](=O)[O-]`
a: 300

###

Test: octanol/water partition coefficient
Type: physicochemical
Details: octanol/water; Table II, 5-acyl derivatives of isosorbide 2-nitrate; read-out: Partition coeff. (octanol/H2O) (converted)
measured.parameter: logP
One number for each entry.

Would you please look over these solved cases?
CCOC(=O)CCCCC(=O)O[C@@H]1CO[C@H]2[C@@H]1OC[C@@H]2O[N+](=O)[O-]: 1.58
CCC(=O)O[C@@H]1CO[C@H]2[C@@H]1OC[C@@H]2O[N+](=O)[O-] [IS-5P-2N, isosorbide 2-nitrate 5-propionate, reference compound]: 0.947

// for each molecule below, give its logP
1. COc1cc(C(=O)O[C@@H]2CO[C@H]3[C@@H]2OC[C@@H]3O[N+](=O)[O-])cc(OC)c1OC
2. O=[N+]([O-])O[C@H]1CO[C@H]2[C@@H]1OC[C@H]2O [IS-2-N, 1,4:3,6-dianhydrosorbitol 2-nitrate, reference compound]
3. CC(=O)O[C@@H]1CO[C@H]2[C@@H]1OC[C@@H]2O[N+](=O)[O-] [IS-5A-2N, isosorbide 5-acetate 2-nitrate, reference compound]
4. COc1cc(C=CC(=O)O[C@@H]2CO[C@H]3[C@@H]2OC[C@@H]3O[N+](=O)[O-])cc(OC)c1OC
5. COc1ccc(C=CC(=O)O[C@@H]2CO[C@H]3[C@@H]2OC[C@@H]3O[N+](=O)[O-])cc1OC
6. CCCCCCCCCCCCCCCC(=O)O[C@@H]1CO[C@H]2[C@@H]1OC[C@@H]2O[N+](=O)[O-]

a:
1. 2.08
2. -0.231
3. 0.418
4. 2.5
5. 2.2
6. 1.51

###

Provide the reported logP of each item.
Experiment: octanol/water partition coefficient
Assay type: physicochemical
Settings: octanol/water; Table I, 2-acyl derivatives of isosorbide 5-nitrate; read-out: Partition coeff. (octanol/H2O) (converted)
One number for each entry.

COc1cc(C(=O)O[C@H]2CO[C@H]3[C@@H]2OC[C@H]3O[N+](=O)[O-])cc(OC)c1OC: 2.09

// for each compound below, give its logP
1. COc1cc(C=CC(=O)O[C@H]2CO[C@H]3[C@@H]2OC[C@H]3O[N+](=O)[O-])cc(OC)c1OC
2. O=[N+]([O-])O[C@@H]1CO[C@H]2[C@@H]1OC[C@@H]2O [IS-5-N, 1,4:3,6-dianhydrosorbitol 5-nitrate, reference compound]

a:
2.44
-0.0501

###

Provide the reported Potency ratio, In vitro of each item.
System: helicoidal strips of rabbit aorta
Assay: In vitro vasodilating activity: inhibition of K+-induced contraction of aorta strips
Type: cell-based, male albino rabbits (New Zealand strain)
Conditions: Table III, relative to IS-2-N
Protocol: Aorta strips from male albino rabbits (New Zealand strain), prepared according to the method by Furchgott and Bhadrakom--J. Pharm. Exp. Ther. 108, 129 (1953), were contracted with a solution enriched in K^+ (100 mM). When the contraction was stable, the test compounds were added, according to the method of cumulative dosages. The responses were isometrically recorded and expressed as contraction percentage inhibition. […]
Numbers only.

COc1cc(C=CC(=O)O[C@@H]2CO[C@H]3[C@@H]2OC[C@@H]3O[N+](=O)[O-])cc(OC)c1OC: 6
CC(=O)O[C@@H]1CO[C@H]2[C@@H]1OC[C@@H]2O[N+](=O)[O-] [IS-5A-2N, isosorbide 5-acetate 2-nitrate, reference compound]: 6.5

Please find the next molecule below.
q: # query: Potency ratio, In vitro | item O=[N+]([O-])O[C@H]1CO[C@H]2[C@@H]1OC[C@H]2O [IS-2-N, 1,4:3,6-dianhydrosorbitol 2-nitrate, reference compound] | system: helicoidal strips of rabbit aorta
a: 1

Each recorded value in this set is attributed to patent US4956384A.
